- experimental_target: Human recombinant sEH (Homo sapiens, UniProt P34913)
- Sequence (P34913 whole entry): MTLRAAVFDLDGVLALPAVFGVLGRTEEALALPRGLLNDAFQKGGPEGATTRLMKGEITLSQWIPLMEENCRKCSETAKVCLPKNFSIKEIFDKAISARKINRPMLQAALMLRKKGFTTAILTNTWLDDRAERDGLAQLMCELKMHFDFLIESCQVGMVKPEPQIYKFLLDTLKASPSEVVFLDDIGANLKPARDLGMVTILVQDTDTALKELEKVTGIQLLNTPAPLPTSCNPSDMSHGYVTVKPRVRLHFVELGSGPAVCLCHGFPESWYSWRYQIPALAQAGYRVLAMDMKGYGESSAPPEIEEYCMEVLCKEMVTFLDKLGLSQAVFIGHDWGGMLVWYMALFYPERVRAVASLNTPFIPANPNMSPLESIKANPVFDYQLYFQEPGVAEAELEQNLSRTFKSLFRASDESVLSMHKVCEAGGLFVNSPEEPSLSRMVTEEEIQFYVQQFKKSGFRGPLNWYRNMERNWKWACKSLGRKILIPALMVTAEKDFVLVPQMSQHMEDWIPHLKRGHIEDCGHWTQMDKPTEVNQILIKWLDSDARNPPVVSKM
- test_method_notes: sEH cell-free fluorescence-based assay (PHOME substrate)
- conditions_used: cell-free assay, human sEH; means ± SEM, n = 3
Kindly supply the reported pIC50 values for the records listed here.
pIC50 here is simply -log10 of the concentration when that concentration is written in mol/L.

The reported Human recombinant sEH (Homo sapiens, UniProt P34913) pIC50 of COc1ccccc1CSc1nc2cc(C(=O)NCC(C)(C)C)ccc2c(=O)[nH]1 [Compound 42] is 5.41

Per the reported Human recombinant sEH (Homo sapiens, UniProt P34913) data, CC(C)(C)CNC(=O)c1ccc2c(=O)[nH]c(SCc3cccc(Cl)c3)nc2c1 [Compound 35] has pIC50 of 6.52

Entry CC(C)(C)CNC(=O)c1ccc2c(=O)[nH]c(SCc3ccccc3C#N)nc2c1 [Compound 40] under Human recombinant sEH (Homo sapiens, UniProt P34913) had pIC50 of 5.62

Test item CC(C)CNC(=O)c1ccc2c(=O)n(-c3ccccc3)c(SCc3ccccc3Cl)nc2c1 [Compound 12] ; Human recombinant sEH (Homo sapiens, UniProt P34913); reported pIC50 was 5.13

Sample CC(C)(C)CNC(=O)c1ccc2c(=O)[nH]c(SCc3ccc(Cl)cc3)nc2c1 [Compound 36] , system: Human recombinant sEH (Homo sapiens, UniProt P34913). Its pIC50 is 5.96
